procedure.details: Cmax in CD rat at 5 mg/kg, po by LC/MS/MS analysis
Type: ADME, organism-based
Parameters: dose 5 mg/kg, route po
condition.info: in vivo
property.measured: Cmax (ng/mL)
One number for each entry, in ng/mL.

Incoming: Name the recorded Cmax for `C=CC(=O)Nc1cc(Nc2ncc(-c3cnn(C)c3)c(-c3cn4c5c(cccc35)CCC4)n2)c(OC)cc1N(C)CCN(C)C` .
Outgoing: 90

====

procedure.details: Inhibition of mouse EGFR V769_D770insASV mutant stably expressed in mouse BaF3 cells assessed as cell viability incubated for 3 days by Cell Titer-Glo assay
Format: cell-based
condition.info: BaF3, 72 h
Exercise: for every item that follows, state its recorded log10(IC50).
Recall that a logarithmic scale is used here: each number is log10 of IC50 in nM.

Worked set:
molecule=C=CC(=O)Nc1cc(Nc2ncc(Cl)c(-c3c4n(c5ccccc35)CCOC4)n2)c(OC)cc1N(C)CCN(C)C value_reported=3.01
molecule="C=CC(=O)Nc1cc(Nc2nccc(-c3cn(C)c4ccccc34)n2)c(OC)cc1N(C)CCN(C)C [OSIMERTINIB]" value_reported=2.20
molecule=C#Cc1cnc(Nc2cc(NC(=O)C=C)c(N(C)CCN(C)C)cc2OC)nc1-c1cn2c3c(cccc13)CCC2 value_reported=1.40
molecule=C=CC(=O)Nc1cc(Nc2ncc(C(=O)OC)c(-c3cn(C)c4ccccc34)n2)c(OC)cc1N(C)CCN(C)C value_reported=1.26
molecule=C=CC(=O)Nc1cc(Nc2ncc(C(=O)OC(C)C)c(-c3cn(C)c4ccccc34)n2)c(OC)cc1N(C)C[C@@H]1CCCN1C value_reported=1.15

Give log10(IC50) for each of the items listed below.
1. C=CC(=O)Nc1cc(Nc2nccc(-c3c4n(c5ccccc35)CCOC4)n2)c(OC)cc1N(C)CCN(C)C
2. C=CC(=O)Nc1cc(Nc2ncc(C#N)c(-c3cn4c5c(cccc35)CCC4)n2)c(OC)cc1N(C)CCN(C)C
3. C=CC(=O)Nc1cc(Nc2ncc(C(=O)OC(C)C)c(-c3cn(C(C)=O)c4ccccc34)n2)c(OC)cc1N(C)CCN(C)C

Outgoing:
[2.05, 0.97, 0.60]

====

Exercise: for every item that follows, state its recorded log10 IC50.
tgt: Epidermal growth factor receptor (Homo sapiens, UniProt P00533)
Sequence (P00533 whole entry): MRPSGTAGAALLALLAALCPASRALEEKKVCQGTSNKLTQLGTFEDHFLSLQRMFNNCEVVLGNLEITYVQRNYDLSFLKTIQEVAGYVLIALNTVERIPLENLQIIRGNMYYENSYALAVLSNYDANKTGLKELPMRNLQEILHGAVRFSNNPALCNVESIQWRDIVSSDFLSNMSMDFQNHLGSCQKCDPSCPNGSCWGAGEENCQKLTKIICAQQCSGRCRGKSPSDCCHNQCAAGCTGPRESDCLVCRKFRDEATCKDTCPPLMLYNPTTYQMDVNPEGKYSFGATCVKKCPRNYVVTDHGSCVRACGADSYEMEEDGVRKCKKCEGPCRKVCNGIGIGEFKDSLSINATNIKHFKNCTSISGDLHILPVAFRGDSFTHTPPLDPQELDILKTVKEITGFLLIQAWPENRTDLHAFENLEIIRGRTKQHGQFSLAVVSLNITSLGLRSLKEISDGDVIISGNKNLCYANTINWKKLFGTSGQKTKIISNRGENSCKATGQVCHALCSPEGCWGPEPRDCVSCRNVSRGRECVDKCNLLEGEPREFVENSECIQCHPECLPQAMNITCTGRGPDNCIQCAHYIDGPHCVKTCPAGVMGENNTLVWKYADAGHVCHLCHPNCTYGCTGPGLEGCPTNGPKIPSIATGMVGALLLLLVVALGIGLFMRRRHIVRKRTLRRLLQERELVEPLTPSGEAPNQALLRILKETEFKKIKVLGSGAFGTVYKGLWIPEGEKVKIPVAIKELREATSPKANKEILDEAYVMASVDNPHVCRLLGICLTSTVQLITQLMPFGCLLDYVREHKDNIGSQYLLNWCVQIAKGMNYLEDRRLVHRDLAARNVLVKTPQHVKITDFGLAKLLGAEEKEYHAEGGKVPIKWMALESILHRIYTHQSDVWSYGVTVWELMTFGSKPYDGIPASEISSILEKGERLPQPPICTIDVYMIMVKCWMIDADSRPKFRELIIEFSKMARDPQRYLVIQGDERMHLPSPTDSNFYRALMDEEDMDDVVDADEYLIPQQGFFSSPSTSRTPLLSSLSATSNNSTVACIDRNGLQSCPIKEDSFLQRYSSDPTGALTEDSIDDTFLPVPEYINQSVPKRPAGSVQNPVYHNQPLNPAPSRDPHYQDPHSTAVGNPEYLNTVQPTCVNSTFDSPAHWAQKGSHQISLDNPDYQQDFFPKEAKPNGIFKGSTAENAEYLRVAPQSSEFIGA
procedure.details: Inhibition of […]-induced EGFR phosphorylation in human A549 cells pretreated for 2 hrs followed by EGF stimulation by immune assay
Format: cell-based
Recall that a logarithmic scale is used here: each number is log10 of IC50 in nM.

Worked set:
compound=C=CC(=O)Nc1cc(Nc2ncc(C(=O)OCC(C)C)c(-c3cn(C)c4ccccc34)n2)c(OC)cc1N(C)CCN(C)C property_measured="log10 IC50" value_reported=2.15
compound=C=CC(=O)Nc1cc(Nc2ncc(C(=O)OCC)c(-c3cn4c5c(cccc35)CCC4)n2)c(OC)cc1N(C)CCN(C)C property_measured="log10 IC50" value_reported=1.51
compound="C=CC(=O)Nc1cc(Nc2ncc(C(=O)OC(C)C)c(-c3cn(C)c4ccccc34)n2)c(OC)cc1N(C)CCN(C)C [MOBOCERTINIB]" property_measured="log10 IC50" value_reported=1.49
compound=C=CC(=O)Nc1cc(Nc2ncc(-c3cnn(C(C)C)c3)c(-c3cn4c5c(cccc35)CCC4)n2)c(OC)cc1N(C)CCN(C)C property_measured="log10 IC50" value_reported=1.18
compound=C=CC(=O)Nc1cc(Nc2ncc(-c3ncco3)c(-c3cn4c5c(cccc35)CCC4)n2)c(OC)cc1N(C)CCN(C)C property_measured="log10 IC50" value_reported=1.65
compound=C=CC(=O)Nc1cc(Nc2ncc(C(=O)CC)c(-c3cn4c5c(cccc35)CCC4)n2)c(OC)cc1N(C)CCN(C)C property_measured="log10 IC50" value_reported=1.36
compound=C=CC(=O)Nc1cc(Nc2nccc(-c3c4n(c5ccccc35)CCOC4)n2)c(OC)cc1N(C)CCN(C)C property_measured="log10 IC50" value_reported=2.46
compound=C=CC(=O)Nc1cc(Nc2ncc(C(=O)OC(C)C)c(-c3cn(CC)c4ccccc34)n2)c(OC)cc1N(C)CCN(C)C property_measured="log10 IC50" value_reported=1.38
compound=C=CC(=O)Nc1cc(Nc2ncc(C(=O)NC)c(-c3cn4c5c(cccc35)CCC4)n2)c(OC)cc1N(C)CCN(C)C property_measured="log10 IC50" value_reported=2.17
compound=C#Cc1cnc(Nc2cc(NC(=O)C=C)c(N(C)CCN(C)C)cc2OC)nc1-c1cn2c3c(cccc13)CCC2 property_measured="log10 IC50" value_reported=1.62

Give log10 IC50 for each of the items listed below.
1. C=CC(=O)Nc1cc(Nc2ncc(C#N)c(-c3cn4c5c(cccc35)CCC4)n2)c(OC)cc1N(C)CCN(C)C
2. C=CC(=O)Nc1cc(Nc2ncc(-c3nnco3)c(-c3cn4c5c(cccc35)CCC4)n2)c(OC)cc1N(C)CCN(C)C
3. C=CC(=O)Nc1cc(Nc2ncc(-c3ccnn3C)c(-c3cn4c5c(cccc35)CCC4)n2)c(OC)cc1N(C)CCN(C)C
4. C=CC(=O)Nc1cc(Nc2ncc(Cl)c(-c3cn4c5c(cccc35)CCC4)n2)c(OC)cc1N(C)CCN(C)C
5. C=CC(=O)Nc1cc(Nc2ncc(C(=O)OC)c(-c3cn(C)c4ccccc34)n2)c(OC)cc1N(C)CCN(C)C

Outgoing:
1. 1.54
2. 1.18
3. 1.36
4. 1.85
5. 1.30

====

procedure.details: Cmax in CD-1 mouse at 10 mg/kg, po by LC/MS/MS analysis
Format: ADME, organism-based
Parameters: dose 10 mg/kg, route po
condition.info: in vivo
Exercise: for every item that follows, state its recorded Cmax.

Worked set:
compound=C=CC(=O)Nc1cc(Nc2ncc(C(=O)OCC)c(-c3cn(C)c4ccccc34)n2)c(OC)cc1N(C)CCN(C)C value_reported="45 ng/mL"
compound=C=CC(=O)Nc1cc(Nc2ncc(C(=O)OC(C)C)c(-c3cn(C(C)=O)c4ccccc34)n2)c(OC)cc1N(C)CCN(C)C value_reported="42 ng/mL"
compound=C=CC(=O)Nc1cc(Nc2ncc(C(=O)OC(C)C)c(-c3cn(C)c4ccccc34)n2)c(OC)cc1N(C)C[C@@H]1CCCN1C value_reported="145 ng/mL"

Give Cmax for each of the items listed below.
1. C=CC(=O)Nc1cc(Nc2ncc(-c3nnco3)c(-c3cn4c5c(cccc35)CCC4)n2)c(OC)cc1N(C)CCN(C)C
2. C=CC(=O)Nc1cc(Nc2ncc(C(=O)OC(C)C)c(-c3cn(C)c4ccccc34)n2)c(OC)cc1N(C)C[C@H]1CCCN1C
3. C=CC(=O)Nc1cc(Nc2nccc(-c3c4n(c5ccccc35)CCOC4)n2)c(OC)cc1N(C)CCN(C)C

Outgoing:
1. 9 ng/mL
2. 94 ng/mL
3. 183 ng/mL

Give Cmax for each of the items listed below.
1. C=CC(=O)Nc1cc(Nc2ncc(C(=O)OCC)c(-c3cn4c5c(cccc35)CCC4)n2)c(OC)cc1N(C)CCN(C)C
2. C=CC(=O)Nc1cc(Nc2ncc(-c3nc(C)no3)c(-c3cn4c5c(cccc35)CCC4)n2)c(OC)cc1N(C)CCN(C)C

Outgoing:
["29 ng/mL", "31 ng/mL"]

Give Cmax for each of the items listed below.
1. C=CC(=O)Nc1cc(Nc2nccc(-c3cn(C)c4ccccc34)n2)c(OC)cc1N(C)CCN(C)C [OSIMERTINIB]
2. C=CC(=O)Nc1cc(Nc2nccc(-c3cn4c5c(cccc35)OCC4)n2)c(OC)cc1N(C)CCN(C)C
3. C=CC(=O)Nc1cc(Nc2ncc(C(=O)OC)c(-c3cn4c5c(cccc35)CCC4)n2)c(OC)cc1N(C)CCN(C)C
4. C=CC(=O)Nc1cc(Nc2ncc(C(=O)OC(C)C)c(-c3cn(CC)c4ccccc34)n2)c(OC)cc1N(C)CCN(C)C
5. C=CC(=O)Nc1cc(Nc2ncc(-c3cnn(C(C)C)c3)c(-c3cn4c5c(cccc35)CCC4)n2)c(OC)cc1N(C)CCN(C)C
6. C=CC(=O)Nc1cc(Nc2ncc(C(=O)OC(C)C)c(-c3cn(C)c4ccccc34)n2)c(OC)cc1N(C)CCN(C)C [MOBOCERTINIB]

Outgoing:
["175 ng/mL", "97 ng/mL", "20 ng/mL", "72 ng/mL", "46 ng/mL", "82 ng/mL"]

Incoming: Name the recorded Cmax for `C=CC(=O)Nc1cc(Nc2ncc(-c3ncco3)c(-c3cn4c5c(cccc35)CCC4)n2)c(OC)cc1N(C)CCN(C)C` .
Outgoing: 57 ng/mL

====

procedure.details: Inhibition of mouse EGFR V769_D770insASV mutant stably expressed in mouse BaF3 cells assessed as cell viability incubated for 3 days by Cell Titer-Glo assay
Type: cell-based
condition.info: BaF3, 72 h
property.measured: pIC50
Answers are plain numbers, as −log10 of the molar value.

Worked set:
compound=C=CC(=O)Nc1cc(Nc2ncc(-c3ncco3)c(-c3cn4c5c(cccc35)CCC4)n2)c(OC)cc1N(C)CCN(C)C property_measured=pIC50 value_reported=7.54
compound=C=CC(=O)Nc1cc(Nc2ncc(-c3ccnn3C)c(-c3cn4c5c(cccc35)CCC4)n2)c(OC)cc1N(C)CCN(C)C property_measured=pIC50 value_reported=7.55
compound=C=CC(=O)Nc1cc(Nc2ncc(C(=O)OCC)c(-c3cn(C)c4ccccc34)n2)c(OC)cc1N(C)CCN(C)C property_measured=pIC50 value_reported=7.89
compound=C=CC(=O)Nc1cc(Nc2ncc(C(=O)NC)c(-c3cn4c5c(cccc35)CCC4)n2)c(OC)cc1N(C)CCN(C)C property_measured=pIC50 value_reported=6.87

Give pIC50 for each of the items listed below.
1. C=CC(=O)Nc1cc(Nc2ncc(C(=O)CC)c(-c3cn4c5c(cccc35)CCC4)n2)c(OC)cc1N(C)CCN(C)C
2. C=CC(=O)Nc1cc(Nc2ncc(C(=O)OC(C)C)c(-c3cn(C4CC4)c4ccccc34)n2)c(OC)cc1N(C)CCN(C)C
3. C=CC(=O)Nc1cc(Nc2ncc(C(=O)OC(C)C)c(-c3cn(C)c4ccccc34)n2)c(OC)cc1N(C)CCN(C)C [MOBOCERTINIB]
4. C=CC(=O)Nc1cc(Nc2ncc(C(=O)OCC)c(-c3cn4c5c(cccc35)CCC4)n2)c(OC)cc1N(C)CCN(C)C
5. CN(C)C/C=C/C(=O)Nc1cc2c(Nc3ccc(F)c(Cl)c3)ncnc2cc1O[C@H]1CCOC1 [AFATINIB]
6. C=CC(=O)Nc1cc(Nc2ncc(C(=O)OCC(C)C)c(-c3cn(C)c4ccccc34)n2)c(OC)cc1N(C)CCN(C)C
7. C=CC(=O)Nc1cc(Nc2nccc(-c3cn4c5c(cccc35)OCC4)n2)c(OC)cc1N(C)CCN(C)C

Outgoing:
1. 7.76
2. 7.52
3. 7.96
4. 7.82
5. 7.36
6. 7.37
7. 6.86

Give pIC50 for each of the items listed below.
1. C=CC(=O)Nc1cc(Nc2ncc(C(=O)OC)c(-c3cn4c5c(cccc35)CCC4)n2)c(OC)cc1N(C)CCN(C)C
2. C=CC(=O)Nc1cc(Nc2ncc(C(=O)OC(C)C)c(-c3cn(C)c4ccccc34)n2)c(OC)cc1N(C)C[C@H]1CCCN1C
3. C=CC(=O)Nc1cc(Nc2nccc(-c3cn4c5c(cccc35)CCC4)n2)c(OC)cc1N(C)CCN(C)C
4. C=CC(=O)Nc1cc(Nc2ncc(-c3nc(C)no3)c(-c3cn4c5c(cccc35)CCC4)n2)c(OC)cc1N(C)CCN(C)C

Outgoing:
1. 7.66
2. 7.92
3. 6.71
4. 7.42
